Molecular target: T1, TNFR1 (Homo sapiens, UniProt P19438)
T1 chain: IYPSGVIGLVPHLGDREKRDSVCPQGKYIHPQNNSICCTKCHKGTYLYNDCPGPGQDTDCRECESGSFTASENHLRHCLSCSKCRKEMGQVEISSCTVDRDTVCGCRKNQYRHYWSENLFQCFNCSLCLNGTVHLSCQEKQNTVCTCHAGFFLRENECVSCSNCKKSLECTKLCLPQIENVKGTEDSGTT
Assay: yeast display SC50
endpoint-label: apparent Kd (screen) (nM)
Numbers only, in nM.

[
  {
    "binder": "E99M (designed binder) MTLQELLREEALRRAEAEAFRYALELLAEKFPEQKEYLLDLAEEIESQIRSLSGVDVEDVRKFLDKEWAWVKELLAEHPAELAEVEAARAARLAELRAMVEAKVAA",
    "unit-annotation": "nM",
    "apparent Kd (screen)": 0.956
  }
]

Would you kindly look at the next entry?
QUERY: Please look up its apparent Kd (screen): E16T (designed binder) MTLQELLREEALRRATAEAFRYALELLAEKFPEQKEYLLDLAEEIESQIRSLSGVDVEDVRKFLDKEWAWVKELLAEHPAELAEVEAARAARLAELRAEVEAKVAA
RESULT: 0.539

Attribution: paper PMC12416549
